target: human TRPV1 (Homo sapiens (Human)); assay: Acid Activation Assay (pH 5.0, intracellular Ca2+, FLIPR); type: cell-based; settings: percentage of the maximal pH 5.0-induced response remaining; recombinant HEK293 hTRPV1 cells; maximum concentration tested 37.5 μM
We label by threshold. Values of human TRPV1 H^+ (max % remain) strictly beneath 40% are TRUE. Values of 40% and up are FALSE.

# example entries with known answers
# compound, test.target, answer.label
records = [
    ("Cn1c(=O)ccc2c(NC(=O)N[C@@H]3CCc4cc(Cl)ccc43)cccc21 [Example 96]", "human TRPV1 (Homo sapiens (Human))", "TRUE"),
    ("Cn1c(=O)ccc2c(NC(=O)N[C@H]3CCOc4cc(OC(F)(F)F)ccc43)cccc21 [Example 78]", "human TRPV1 (Homo sapiens (Human))", "FALSE"),
    ("CN1C(=O)CCc2ccc(NC(=O)N[C@H]3CC4(CCC4)Oc4ccc(F)cc43)cc21 [Example 286]", "human TRPV1 (Homo sapiens (Human))", "FALSE"),
    ("Cn1c(=O)ccc2c(NC(=O)N[C@@H]3CC4(CCCC4)Oc4ccccc43)cccc21 [Example 65]", "human TRPV1 (Homo sapiens (Human))", "TRUE"),
    ("CN1C(=O)NCc2c(NC(=O)N[C@@H]3CC(CF)(CF)Oc4ccccc43)cccc21 [Example 9]", "human TRPV1 (Homo sapiens (Human))", "TRUE"),
    ("CC1(C)C[C@@H](NC(=O)Nc2ccc3c(c2)NC(=O)N(CCO)C3)c2ccc(F)c(Cl)c2O1 [Example 312]", "human TRPV1 (Homo sapiens (Human))", "TRUE"),
    ("CN1Cc2ccc(NC(=O)N[C@H]3CCOc4cc(OC(F)(F)F)ccc43)cc2NC1=O [Example 194]", "human TRPV1 (Homo sapiens (Human))", "FALSE"),
    ("CCC1(CC)C[C@@H](NC(=O)Nc2cccc3c2ccc(=O)n3C)c2ccc(OC(F)(F)F)cc2O1 [Example 76]", "human TRPV1 (Homo sapiens (Human))", "TRUE"),
]

API: query returns whether the compound falls strictly under 40% in human TRPV1 H^+ (max % remain). Query: O=C1COc2ccc(NC(=O)N[C@@H]3CC4(CCCC4)Oc4ccccc43)cc2N1 [Example 124]
FALSE

API: query returns whether the compound falls strictly under 40% in human TRPV1 H^+ (max % remain). Query: CN1C(=O)NCc2c(NC(=O)NC3COc4cc(Cl)ccc4C3)cccc21 (centres unmarked) [Example 161]
TRUE

API: query returns whether the compound falls strictly under 40% in human TRPV1 H^+ (max % remain). Query: CN1Cc2ccc(NC(=O)N[C@@H]3CC4(CCC4)Oc4ccc(F)cc43)cc2NC1=O [Example 188]
FALSE

API: query returns whether the compound falls strictly under 40% in human TRPV1 H^+ (max % remain). Query: CN1C(=O)CCc2ccc(NC(=O)N[C@@H]3CC(CF)(CF)Oc4cc(Cl)ccc43)cc21 [Example 255]
TRUE

API: query returns whether the compound falls strictly under 40% in human TRPV1 H^+ (max % remain). Query: Cn1c(=O)ccc2c(NC(=O)N[C@@H]3CCc4cc(C(C)(C)C)ccc43)cccc21 [Example 68]
TRUE

API: query returns whether the compound falls strictly under 40% in human TRPV1 H^+ (max % remain). Query: CC1(C)C[C@@H](NC(=O)Nc2ccc3c(c2)NC(=O)CO3)c2cc(F)ccc2O1 [Example 113]
FALSE

API: query returns whether the compound falls strictly under 40% in human TRPV1 H^+ (max % remain). Query: O=C(Nc1ccc2c(c1)NC(=O)N(CCO)C2)N[C@@H]1CC2(CCCC2)Oc2ccccc21 [Example 317]
TRUE

API: query returns whether the compound falls strictly under 40% in human TRPV1 H^+ (max % remain). Query: CN1C(=O)NCc2c(NC(=O)N[C@@H]3CC4(CCC4)Oc4ccc(F)cc43)cccc21 [Example 154]
TRUE

API: query returns whether the compound falls strictly under 40% in human TRPV1 H^+ (max % remain). Query: Cn1c(=O)ccc2c(NC(=O)N[C@@H]3CC(C)(C)Oc4ccccc43)cccc21 [Example 77]
FALSE

API: query returns whether the compound falls strictly under 40% in human TRPV1 H^+ (max % remain). Query: CCCC1(CCC)C[C@@H](NC(=O)Nc2cccc3c2CNC(=O)N3C)c2cc(F)ccc2O1 [Example 151]
FALSE

API: query returns whether the compound falls strictly under 40% in human TRPV1 H^+ (max % remain). Query: CCC1(CC)C[C@@H](NC(=O)Nc2ccc3c(c2)N(C)C(=O)CC3)c2ccc(C(F)(F)F)cc2O1 [Example 261]
FALSE

API: query returns whether the compound falls strictly under 40% in human TRPV1 H^+ (max % remain). Query: CCC1(CC)C[C@@H](NC(=O)Nc2ccc3c(c2)NC(=O)N(C)C3)c2ccccc2O1 [Example 178]
FALSE

API: query returns whether the compound falls strictly under 40% in human TRPV1 H^+ (max % remain). Query: CN1C(=O)CCc2ccc(NC(=O)N[C@@H]3CCc4cc(C(F)(F)F)ccc43)cc21 [Example 36]
FALSE

API: query returns whether the compound falls strictly under 40% in human TRPV1 H^+ (max % remain). Query: O=C1CCc2ccc(NC(=O)N[C@@H]3CCc4cc(C(F)(F)F)ccc43)cc2N1 [Example 35]
TRUE

###

biological target: human TRPV1 (Homo sapiens (Human)); assay: Acid Activation Assay (pH 5.0, intracellular Ca2+, FLIPR); format: cell-based; details: percentage of the maximal pH 5.0-induced response remaining; recombinant HEK293 hTRPV1 cells; maximum concentration tested 37.5 μM
We label by threshold. Values of human TRPV1 H^+ (max % remain) strictly beneath 40% are t. Values of 40% and up are f.

# example entries with known answers
# compound, test.target, answer.label
data = [
    ("O=C(Nc1cccc2[nH]c(=O)ccc12)N[C@@H]1CC(CF)(CF)Oc2cc(Cl)ccc21", "human TRPV1 (Homo sapiens (Human))", "t"),
    ("CN1C(=O)NCc2c(NC(=O)N[C@@H]3CC(C)(C)c4ccccc43)cccc21", "human TRPV1 (Homo sapiens (Human))", "t"),
    ("C[C@@]1(CF)C[C@@H](NC(=O)Nc2ccc3c(c2)NC(=O)CO3)c2ccc(Cl)cc2O1", "human TRPV1 (Homo sapiens (Human))", "f"),
    ("CCN1C(=O)NCc2c(NC(=O)N[C@@H]3CC(C)(C)Oc4ccccc43)cccc21", "human TRPV1 (Homo sapiens (Human))", "t"),
    ("CN1C(=O)NCc2c(NC(=O)N[C@@H]3CCOc4cc(C(F)(F)F)ccc43)cccc21", "human TRPV1 (Homo sapiens (Human))", "t"),
    ("CCC1(CC)C[C@@H](NC(=O)Nc2ccc3c(c2)NC(=O)CO3)c2cc(F)ccc2O1", "human TRPV1 (Homo sapiens (Human))", "f"),
]

API: query returns whether the compound falls strictly under 40% in human TRPV1 H^+ (max % remain). Query: CC1(C)C[C@@H](NC(=O)Nc2ccc3c(c2)NC(=O)CO3)c2ccccc2O1
f

###

target: human TRPV1 (Homo sapiens (Human), UniProt Q8NER1); test: Acid Activation Assay (pH 5.0, intracellular Ca2+, FLIPR); type: cell-based; conditions: percentage of the maximal pH 5.0-induced response remaining; recombinant HEK293 hTRPV1 cells; maximum concentration tested 37.5 μM
Sequence (Q8NER1 whole entry): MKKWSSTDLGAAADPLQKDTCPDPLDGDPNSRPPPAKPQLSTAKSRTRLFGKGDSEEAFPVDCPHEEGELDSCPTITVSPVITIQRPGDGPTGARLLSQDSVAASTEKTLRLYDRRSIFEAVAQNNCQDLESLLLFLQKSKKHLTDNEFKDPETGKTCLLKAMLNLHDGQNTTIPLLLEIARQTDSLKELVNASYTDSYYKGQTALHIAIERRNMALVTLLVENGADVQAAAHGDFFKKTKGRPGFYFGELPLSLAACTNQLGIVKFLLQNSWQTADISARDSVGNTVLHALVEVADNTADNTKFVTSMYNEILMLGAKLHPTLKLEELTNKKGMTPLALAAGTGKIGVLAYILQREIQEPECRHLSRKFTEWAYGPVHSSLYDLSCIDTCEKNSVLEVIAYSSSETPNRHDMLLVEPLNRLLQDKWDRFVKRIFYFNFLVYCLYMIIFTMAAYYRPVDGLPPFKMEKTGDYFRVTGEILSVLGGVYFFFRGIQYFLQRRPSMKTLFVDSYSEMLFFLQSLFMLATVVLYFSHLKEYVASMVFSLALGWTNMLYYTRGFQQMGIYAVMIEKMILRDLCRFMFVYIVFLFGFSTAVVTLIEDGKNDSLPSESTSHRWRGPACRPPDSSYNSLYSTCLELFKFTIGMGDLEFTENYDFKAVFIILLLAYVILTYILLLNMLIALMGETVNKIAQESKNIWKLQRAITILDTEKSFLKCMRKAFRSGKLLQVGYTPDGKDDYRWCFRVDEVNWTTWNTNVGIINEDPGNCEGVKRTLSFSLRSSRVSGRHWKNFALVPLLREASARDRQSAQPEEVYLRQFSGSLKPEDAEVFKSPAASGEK
Below, each of the compounds is paired with its reported human TRPV1 H^+ (max % remain) value.
Note: unit % is implicit; provide only the numeric part.

As a guide, the following entries are already answered.
# compound, human TRPV1 H^+ (max % remain) [%]
measured = [
    ("O=C1CCc2ccc(NC(=O)N[C@@H]3CC(CF)(CF)Oc4cc(OC(F)(F)F)ccc43)cc2N1", 55),
    ("CCCC1(CCC)C[C@@H](NC(=O)Nc2ccc3c(c2)NC(=O)CC3)c2cc(F)ccc2O1", 19),
    ("CC1(C)C[C@@H](NC(=O)Nc2ccc3c(c2)NC(=O)N(CCO)C3)c2ccc(C(F)(F)F)cc2O1", 1),
]

Return reported human TRPV1 H^+ (max % remain); argument: CN1C(=O)CCc2ccc(NC(=O)N[C@H]3CCOc4cc(OC(F)(F)F)ccc43)cc21
77

Return reported human TRPV1 H^+ (max % remain); argument: CN1C(=O)NCc2c(NC(=O)N[C@@H]3CCOc4cc(F)ccc43)cccc21
21

Return reported human TRPV1 H^+ (max % remain); argument: CCC1(CC)C[C@@H](NC(=O)Nc2ccc3c(c2)NC(=O)N(C)C3)c2ccc(C(F)(F)F)cc2O1
12

Return reported human TRPV1 H^+ (max % remain); argument: CCC1(CC)C[C@@H](NC(=O)Nc2ccc3c(c2)NC(=O)N(C)C3)c2cccc(F)c2O1
59

Return reported human TRPV1 H^+ (max % remain); argument: CN1C(=O)CCc2ccc(NC(=O)N[C@@H]3CC(CF)(CF)Oc4c3ccc(Cl)c4F)cc21
55

Return reported human TRPV1 H^+ (max % remain); argument: CN1C(=O)NCc2c(NC(=O)N[C@@H]3CC(CF)(CF)Oc4c(F)cc(F)cc43)cccc21
23
